Listed here are compounds together with their documented Therapeutic Efficacy Results (Lactobacillus/E. coli) 0.50%.
system: L. crispatus and E. coli; assay: Therapeutic Effect Protocol: L. crispatus / E. coli co-culture, ratio after 36 hours; type: cell-based, Lactobacillus crispatus; E. coli; details: nitrogen compound 0.50 wt/vol % with 1.0 wt/vol % α methyl-D glucoside (2:1); 36 hours anaerobic co-culture, 37° C.
Where a SMILES comes first, the peptide text is derived from it.
property.measured: Therapeutic Efficacy Results (Lactobacillus/E. coli) 0.50%

compound | censor.symbol | val
C[C@@H](O)[C@H](N)C(=O)O [L-Threonine] | = | 1.13
NC(=O)C[C@@H](N)C(=O)O [D-Asparagine] | = | 6.00E+06
CC(C)C[C@H](N)C(=O)O [L-Leucine] | = | 0.24
Cl.N[C@@H]1C(O)O[C@H](CO)[C@@H](O)[C@@H]1O (stereo partly drawn) [D-mannosamine HCl] | = | 84
O=C(O)[C@@H]1CCCN1 [L-Proline] | = | 0.55
NC(=O)CC[C@H](N)C(=O)O [L-Glutamine] | = | 1.28
CCC(N)C(=O)O (racemic) [DL-a-amino-n-butyric acid] | = | 100
CC(C)[C@H](N)C(=O)O [L-Valine] | = | 0.38
C[C@H](N)C(=O)N[C@@H](Cc1cnc[nH]1)C(=O)O [Ala-His] (H-Ala-His-OH) | = | 6.59E+02
N[C@H](CO)C(=O)O [D-Serine] | < | 1.00
Nc1ccn([C@@H]2O[C@H](CO)[C@@H](O)[C@H]2O)c(=O)n1 [Cytidine] | = | 3.85E+03
Cl.NCCC[C@H](N)C(=O)O [L-Ornthine] | = | 1.24
N[C@@H](CS)C(=O)O [L-Cysteine] | = | 28.38
NCC(=O)N[C@@H](CCC(N)=O)C(=O)O.O [Gly-Gln] (H-Gly-Gln-OH) | > | 189
OC[C@H]1O[C@@H](n2cnc3c(O)ncnc32)[C@H](O)[C@@H]1O [Inosine] | = | 226
C[C@@H](N)C(=O)O [D-Alanine] | > | 1.30E+04
CSCC[C@H](N)C(=O)O [L-Methionine] | = | 0.78
C[C@H](NC(=O)CN)C(=O)O [Glycyl-Alanine] (H-Gly-Ala-OH) | = | 220
CSCC[C@H](NC(=O)CN)C(=O)O [Gly-Met] | > | 2343.75
N[C@@H](CO)C(=O)O [L-Serine] | > | 299
CC(=O)N[C@H]1C(O)O[C@H](CO)[C@@H](O)[C@@H]1O (stereo partly drawn) [N-Acetyl-D-Glucosamine] | = | 211
NCCCC(=O)O [DL-gamma-amino-n-butyric acid] | = | 246.6
CNCCc1ccccc1.Cl [Methyl(2-phenylethyl)amine Hydrochloride] | < | 1.00
C[C@H](N)C(=O)O [L-Alanine] | = | 1.52
NCC(=O)O [Glycine] | = | 20.5
Nc1ncnc2c1ncn2[C@@H]1O[C@H](CO)[C@@H](O)[C@H]1O [Adenosine] | = | 0.97
N[C@@H](CCO)C(=O)O [L-Homoserine] | = | 0.66
CC(=O)N[C@H]1C(O)O[C@H](CO)[C@H](O)[C@@H]1O (stereo partly drawn) [N-Acetyl-D-Galactosamine] | > | 100
NC(=O)C[C@H](N)C(=O)O [L-Asparagine] | = | 1.72
CC(=O)N[C@@H]1C(O)O[C@H](CO)[C@@H](O)[C@@H]1O (stereo partly drawn) [N-Acetyl-D-Mannosamine] | = | 100
C[C@H](N)C(=O)N[C@H](C(=O)O)[C@@H](C)O [H-Ala-Thr-OH] (H-Ala-Thr-OH) | > | 103
Cl.N[C@H]1C(O)O[C@H](CO)[C@@H](O)[C@@H]1O (stereo partly drawn) [D-Glucosamine HCL] | = | 6.00E+06
CC(O)C(N)=O (stereo not drawn) [DL Lactamide] | > | 1330
NC(=O)NC1NC(=O)NC1=O (centres unmarked) [Allantoin] | = | 1.37
Cl.N[C@H]1C(O)O[C@H](CO)[C@H](O)[C@@H]1O (stereo partly drawn) [D-Galactosamine HCL] | > | 1220
NC(=O)[C@H]1O[C@@H](O)[C@H](O)[C@@H](O)[C@@H]1O [D-glucoronamide] | = | 6.84E+03
NCC(=O)N[C@@H](CC(N)=O)C(=O)O [Gly-Asn] (H-Gly-Asn-OH) | > | 1.58E+04
NCCCC[C@H](N)C(=O)O [L-Lysine] | = | 1.93
O=C1NC(=O)C(=O)C(=O)N1 [Alloxan] | = | 1.45E+04
N[C@@H](Cc1c[nH]c2ccccc12)C(=O)O [L-Tryptophan] | = | 0.06
c1cncnc1 [Pyrimidine] | > | 4760
